The reported measurements were obtained from PubChem BioAssay (NCI).

- Test system: SW-620 colon
- TEST METHOD NOTES: NCI tumour cell line growth inhibition, 48 h
READOUT NAME: TGI (µM)

>>> endpoint_value("COc1ccc(NCC(=O)Nn2c(-c3ccccc3)nc3ccccc3c2=O)cc1")
82.9
>>> endpoint_value("C[C@@H]1CC(=O)C[C@@H]2CC[C@H]3[C@@H]4CC[C@H](OC(=O)c5cccc6cc7ccccc7nc56)[C@H]4CC[C@@H]3[C@H]21")
44.2
>>> endpoint_value("CC(=O)NC(C=O)C(O[C@H](C)C(=O)NC(C)C(=O)NC(CCC(N)=O)C(=O)OCc1ccccc1)C(O)C(O)COC(=O)CCNc1c2ccccc2nc2cccc([N+](=O)[O-])c12 (stereo not given in full)")
7.44

----------
- System: HCT-116 colon
- TEST METHOD NOTES: NCI tumour cell line growth inhibition, 48 h; in the data active = GI50 below about 0.43 µM; inactive = the rest
Outcome codes: Y (active), N (inactive)

>>> class_label("COc1cnc2c(c1)C(=O)c1c-2n(CCCN2CCC(O)CC2)c(=O)c2cc(Cl)ccc12")
"Y"
>>> class_label("CN(CCC(=O)/C(=C\\c1ccccc1)c1ccc(Cl)cc1)Cc1ccccc1")
"N"
>>> class_label("NC1(Cc2ccc(Cl)cc2)CCN(c2ncnc3[nH]ccc23)CC1")
"N"
>>> class_label("CC1SC2(CCCCC2)N(NC(=O)c2[nH]c3ccc(Br)cc3c2-c2ccccc2)C1=O (configuration not stated)")
"N"
>>> class_label("O=C1c2cccnc2C(=O)c2c1c(C(=O)OCCCN1CCCCC1)c1ccccn21")
"Y"
>>> class_label("COc1ccc(-c2c3c(nc4n[nH]c(-c5ccc(Cl)cc5)c24)-c2ccccc2C(=O)C3=O)cc1")
"N"
>>> class_label("COc1c(N2CCN(CN3C(=O)C(=O)c4cc(Cl)ccc43)C(C)C2)c(F)cc2c(=O)c(C(=O)O)cn(C3CC3)c12 (configuration not stated)")
"N"
>>> class_label("COc1ccc(C(=O)c2sc3nc(-c4cccs4)ccc3c2N)cc1OC")
"N"
>>> class_label("COc1cc(C)c2sc3ccccc3c(=O)c2c1NCCN(C)C")
"N"
>>> class_label("Cn1cc(C2=C(Nc3ccccc3)C(=O)NC2=O)c2ccccc21")
"N"
>>> class_label("CN(C)c1ccc(/C=N/S(=O)(=O)c2ccc(-n3c(-c4ccccc4)nc4c(Br)cc(Br)cc4c3=O)cc2)cc1")
"N"
>>> class_label("CC(C)(C)OC(=O)NCc1cccc(N=C=S)c1")
"N"
>>> class_label("Cc1[nH]c2cc(F)ccc2c1-c1nc2c3cccnc3c3ncccc3c2[nH]1")
"Y"
>>> class_label("Cc1nc2ccccc2nc1N=Nc1ccccc1")
"N"
>>> class_label("CC12CCC(CC1)C(C)(C)O2")
"N"
>>> class_label("CC(=O)O[C@H]1CC[C@@]2(C)C(=C/C(=N/OCCN3CCCC3)[C@H]3[C@@H]4CC[C@H](OC(C)=O)[C@@]4(C)CC[C@@H]32)C1")
"N"
>>> class_label("O=C1/C(=C/c2ccc(O)cc2)COc2ccc(O)c(O)c21")
"N"

----------
Recorded TGI by entry
- System: UO-31 renal
- TEST METHOD NOTES: NCI tumour cell line growth inhibition, 48 h
READOUT NAME: TGI

>>> endpoint_value("COC(=O)C(C(=O)OC)C(Br)C(Br)C(Br)c1ccccc1 (centres undefined)")
"3.42 µM"
>>> endpoint_value("Cc1nc2cc(Nc3nc(Nc4ccc(F)cc4)nc(N4CCOCC4)n3)ccc2n1Cc1ccccc1")
"14.6 µM"
>>> endpoint_value("COC(=O)Cc1cc(=O)[nH]c2c1C(=O)CCC2")
"> 100 µM"
>>> endpoint_value("CCN1C(=NCCO)NS(=O)(=O)c2ccccc21")
"> 100 µM"
>>> endpoint_value("CC1(C)O[C@@H]2C[C@H]3[C@@H]4C[C@H](F)C5=CC(=O)C=C[C@]5(C)[C@@]4(F)[C@@H](O)C[C@]3(C)[C@]2(C(=O)CO)O1")
"> 100 µM"
>>> endpoint_value("CC(C)c1ccccc1SCc1cc(=O)cc(CSc2ccccc2C(C)C)o1")
"> 100 µM"
>>> endpoint_value("CCC1(CN(C)C)CC/C(=C\\c2ccc(OC)c(OC)c2)C1=O (centres undefined)")
"> 100 µM"
>>> endpoint_value("Cc1ccc(C2(c3ccc(F)cc3)OC(=O)c3ccccc32)c(O)c1 (centres undefined)")
"22.4 µM"
>>> endpoint_value("CC(=O)OC1[C@H](OC(C)=O)C2=C(C)[C@@H](OC(C)=O)C[C@@]2(C(C)(C)O)[C@@H](OC(C)=O)[C@H]2[C@@]1(C)[C@@H](OC(C)=O)CC(OC(C)=O)[C@]21CO1 (some centres undefined)")
"> 100 µM"

----------
- Tested on: MOLT-4 leukemia
- TEST METHOD NOTES: NCI tumour cell line growth inhibition, 48 h; in the data active means GI50 below about 0.43 µM; inactive means the rest
Outcome codes: class 1 = active, class 0 = inactive

>>> class_label("NC1(Cc2ccc(Cl)cc2)CCN(c2ncnc3[nH]ccc23)CC1")
"class 0"
>>> class_label("Cc1cc(O)c(C2=NN(c3ccc(S(N)(=O)=O)cc3)C(/C=C/c3ccccc3)C2)cc1Cl (configuration not stated)")
"class 0"
>>> class_label("COc1cc(C)c2sc3ccccc3c(=O)c2c1NCCN(C)C")
"class 0"
>>> class_label("Cc1[nH]c2cc(F)ccc2c1-c1nc2c3cccnc3c3ncccc3c2[nH]1")
"class 1"
>>> class_label("CCCCCCCCCCCCCC[n+]1ccc(C)cc1")
"class 0"
>>> class_label("CCSC[C@@H]1C[C@](O)(c2ccc(F)cc2)[C@@H](c2ccc(F)cc2)O1")
"class 0"
>>> class_label("Cc1cccc2c3c(sc12)C(c1ccc(F)cc1)C(C#N)=C(N)O3 (configuration not stated)")
"class 1"
>>> class_label("CC([O-])=C1C(=O)c2ccccc2C1=O.CC([O-])=C1C(=O)c2ccccc2C1=O.CC[O-].CC[O-].[Ti+4]")
"class 0"
>>> class_label("CN(C)c1ccc(/C=N/S(=O)(=O)c2ccc(-n3c(-c4ccccc4)nc4c(Br)cc(Br)cc4c3=O)cc2)cc1")
"class 0"
>>> class_label("COc1cc(Cl)cc(-c2nn(-c3cccc(NC(=O)Nc4ccc(Cl)c(Cl)c4)c3)cc2-c2ccncc2)c1")
"class 0"
>>> class_label("COCCOCCOCc1n(Cc2ccc3ccccc3n2)c2ccccc2[n+]1Cc1ccc2ccccc2n1")
"class 0"
>>> class_label("NC(CSSCC(N)C(=O)O)C(=O)O (configuration not stated)")
"class 0"

----------
- System: RPMI-8226 leukemia
- TEST METHOD NOTES: NCI tumour cell line growth inhibition, 48 h
Attribute: GI50
READOUT NAME: GI50

>>> endpoint_value("CC([O-])=C1C(=O)c2ccccc2C1=O.CC([O-])=C1C(=O)c2ccccc2C1=O.CC[O-].CC[O-].[Ti+4]")
"> 100 µM"
>>> endpoint_value("CN(C)c1ccc(/C=N/S(=O)(=O)c2ccc(-n3c(-c4ccccc4)nc4c(Br)cc(Br)cc4c3=O)cc2)cc1")
"4.27 µM"
>>> endpoint_value("NC(CSSCC(N)C(=O)O)C(=O)O (centres undefined)")
"> 100 µM"
>>> endpoint_value("CC1SC2(CCCCC2)N(NC(=O)c2[nH]c3ccc(Br)cc3c2-c2ccccc2)C1=O (centres undefined)")
"3.83 µM"

----------
- Test system: 786-0 renal
- TEST METHOD NOTES: NCI tumour cell line growth inhibition, 48 h
molecules and their reported TGI
READOUT NAME: TGI

>>> endpoint_value("O=C(CC1C=Cc2ccccc2N1C(=O)c1ccccc1)c1ccccc1 (configuration not stated)")
"> 100 µM"
>>> endpoint_value("O=C1CSC(c2cccc(Cl)c2)N1c1ccc(-c2ccc(-n3c(-c4ccccc4)nc4ccccc4c3=O)cc2)cc1 (configuration not stated)")
"> 100 µM"
>>> endpoint_value("CCCCNc1ccc(Nc2ccccc2)cc1")
"74.6 µM"
>>> endpoint_value("COc1cc(C)c2sc3ccccc3c(=O)c2c1NCCN(C)C")
"22.2 µM"
>>> endpoint_value("C/C(=C/CC[C@]1(CO)CC[C@]2(C)[C@H](CC[C@@H]3[C@@]4(C)CC[C@H](OC5OC(CO)C(O)C(O)C5OC5OC(CO)C(O)C(O)C5O)C(C)(C)[C@@H]4CC[C@]32C)[C@H]1O)CO (some centres not stated)")
"> 100 µM"
>>> endpoint_value("CC1OC2OC3C(OCC(O)C3O)OC(=O)[C@]34CCC(C)(C)CC3C3=CCC5[C@@]6(C)C[C@H](O)[C@H](OC7OC(CO)C(O)C(O)C7OC7OCC(OC(=O)CC(C)(O)CC(=O)OC1C(O)C2O)C(O)C7O)[C@@](C)(CO)C6CC[C@@]5(C)[C@]3(C)CC4 (some centres not stated)")
"25.6 µM"
>>> endpoint_value("C[C@@H]1CC(=O)C[C@@H]2CC[C@H]3[C@@H]4CC[C@H](OC(=O)c5cccc6cc7ccccc7nc56)[C@H]4CC[C@@H]3[C@H]21")
"23.5 µM"
